targetEntity: T1, Nop15 no-linker (Saccharomyces cerevisiae, UniProt P53927 40-191, del60-76)
T1 sequence: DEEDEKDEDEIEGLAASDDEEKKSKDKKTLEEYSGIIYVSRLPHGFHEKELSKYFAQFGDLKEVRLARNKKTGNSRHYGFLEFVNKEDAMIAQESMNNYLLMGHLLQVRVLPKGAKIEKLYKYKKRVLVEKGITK
procedureDetails: fluorescence polarization; 150 mM NaCl; Nop15 FP: 10 nM RNA/DNA, 20 mM Tris-HCl pH 7.5, 0.02% Tween 20, 150 or 50 mM NaCl; SRSF3 FP: 10 mM MES pH 5.5, 50 mM Arg/Glu, 0.1 mM TCEP, 0.02% Tween 20; incubated 37 °C 30 min then 25 °C 20 min, read at RT
assaySetup: protein: recombinant; tags: N-terminal SUMO tag (pSMT3) cleaved with Ulp1; label: 5' fluorescein; hairpin, 8 bp stem
pKd: −log10 of the molar value.
recordedMetric: pKd

# binder, recordedMetric, dataValue
records = [
    ("AGAGAGAGAGUCUCUCUCUC (structured_RNA) [nonspecific stem-loop RNA]", "pKd", 4.85),
]
